Plasmepsin I (Plasmodium falciparum, UniProt P39898) IC50 data
Sequence (P39898 whole entry): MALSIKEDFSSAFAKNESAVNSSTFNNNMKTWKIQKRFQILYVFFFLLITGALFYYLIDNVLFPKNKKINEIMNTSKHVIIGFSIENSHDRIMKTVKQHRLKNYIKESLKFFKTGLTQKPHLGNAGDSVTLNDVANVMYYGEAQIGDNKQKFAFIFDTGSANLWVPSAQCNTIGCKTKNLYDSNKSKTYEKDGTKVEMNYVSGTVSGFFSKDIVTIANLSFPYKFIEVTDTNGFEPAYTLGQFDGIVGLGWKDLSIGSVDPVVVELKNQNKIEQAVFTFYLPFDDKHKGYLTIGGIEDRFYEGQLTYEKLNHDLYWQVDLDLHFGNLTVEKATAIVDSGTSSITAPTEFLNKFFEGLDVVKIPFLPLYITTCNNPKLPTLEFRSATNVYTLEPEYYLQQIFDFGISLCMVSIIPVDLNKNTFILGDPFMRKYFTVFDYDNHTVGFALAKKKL

Answered examples (2):
O=C(N[C@@H](Cc1ccccc1)[C@@H](O)[C@H](O)[C@H](Cc1ccccc1)NC(=O)c1ccc(F)cc1Cl)c1ccc(F)cc1Cl	> 25 µM
O=C(CC1CCCCC1)N[C@@H](Cc1ccccc1)[C@@H](O)[C@H](O)[C@H](Cc1ccccc1)NC(=O)CC1CCCCC1	4.39 µM

We next turn to a different compound, shown below.
## Task Which measured IC50 belongs to COc1ccccc1C(=O)N[C@@H](CC(C)C)[C@@H](O)[C@H](O)[C@H](CC(C)C)NC(=O)c1ccccc1OC , tested on Plasmepsin I (Plasmodium falciparum, UniProt P39898)?
## Result > 25 µM

----------
Parameter pIC50: see the listing below.
system name: Plasmepsin II (Plasmodium falciparum)
Sequence (P46925 whole entry): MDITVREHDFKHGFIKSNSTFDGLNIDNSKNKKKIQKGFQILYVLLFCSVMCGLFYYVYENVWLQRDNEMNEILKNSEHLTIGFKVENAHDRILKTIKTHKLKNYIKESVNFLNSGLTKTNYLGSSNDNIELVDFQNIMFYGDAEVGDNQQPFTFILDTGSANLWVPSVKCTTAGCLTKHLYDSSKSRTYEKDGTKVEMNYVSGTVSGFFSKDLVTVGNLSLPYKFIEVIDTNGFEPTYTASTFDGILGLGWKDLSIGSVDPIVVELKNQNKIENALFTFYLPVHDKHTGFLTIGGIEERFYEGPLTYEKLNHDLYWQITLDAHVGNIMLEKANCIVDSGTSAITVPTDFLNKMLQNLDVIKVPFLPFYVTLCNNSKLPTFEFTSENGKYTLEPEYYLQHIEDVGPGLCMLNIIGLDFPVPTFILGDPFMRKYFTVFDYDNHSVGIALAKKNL
In simple prose, pIC50 is minus the logarithm base ten of a concentration in moles per litre.

Field: example entries. Status: answers known.
Cc1ccc(C(=O)N[C@@H](Cc2ccccc2)[C@@H](O)[C@H](O)[C@H](Cc2ccccc2)NC(=O)C2CCOC2)cn1 (stereo partly drawn)	4.90
O=C(N[C@@H](Cc1ccccc1)[C@@H](O)[C@H](O)[C@H](Cc1ccccc1)NC(=O)c1ccc(F)cc1Cl)c1ccc2c(c1)OCCO2	4.93

With those in mind, consider the next compound.
## Task Item under review: O=C(CC1CCCCC1)N[C@@H](Cc1ccccc1)[C@@H](O)[C@H](O)[C@H](Cc1ccccc1)NC(=O)CC1CCCCC1 . Reported pIC50?
## Result 5.41

----------
system name: UniProt Q9YQ12
Sequence (Q9YQ12 whole entry): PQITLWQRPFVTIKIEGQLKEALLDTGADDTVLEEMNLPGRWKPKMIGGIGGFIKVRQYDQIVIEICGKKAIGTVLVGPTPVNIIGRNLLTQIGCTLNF
property label: IC50 (µM)
// units = µM; emit number, no label

## Task Return reported IC50; argument: COc1ccccc1C(=O)N[C@@H](CC(C)C)[C@@H](O)[C@H](O)[C@H](CC(C)C)NC(=O)c1ccccc1OC
## Result 1.31
